B1: Lysine-specific demethylase 2B, residues 656 to 722; numbered along this chain, Q8NHM5 (parent)
chain: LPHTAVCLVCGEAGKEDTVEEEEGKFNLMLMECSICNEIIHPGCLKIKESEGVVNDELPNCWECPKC

# Variants of: B1
# assay_method_text: abundance fitness (aPCA) (normalised: wild type 0, dead -1); higher = more abundant; growth selection in yeast, the domain comes from the species named
# recorded_conditions: Homo sapiens
observable: abundance fitness

Hi, could you look up abundance fitness for each item in my list?
1. E23F
2. V6W
3. I35W
4. V53C
5. N27L

1: -0.058; 2: -0.759; 3: -0.643; 4: -0.027; 5: -0.137

Give me abundance fitness for each of these variants, listed below.
1. L58K
2. G52R
3. I47C
4. V6P
5. E63C
6. K46G
7. E51C

0.14
0.067
-0.168
-0.124
-0.073
0.205
0.056

For every record below, what is its abundance fitness?
1. S50G
2. C44Y

0.169
-0.897

Lab note: each variant below needs its abundance fitness filled in.
1. K46H
2. K66V
3. C67K
4. H41Y
5. C61M

[-0.532, -0.173, -0.667, -0.912, -0.12]
